# SYSTEM UNDER TEST: 1,4-dihydroxy-2-naphthoyl-CoA synthase (Mycobacterium tuberculosis (strain ATCC 25618 / H37Rv))
# ASSAY TEXT: M. tuberculosis MenB inhibitors, primary screen, biochemical, absorbance (AID 540299)
# PARTICULARS: MenB enzyme assay, absorbance read-out; hits give high values; concentration not given here
Out of some 100,000 compounds screened, about 440 (0.44%) were called active. The entries come from a sample that favours actives as a whole.
QUANTITY: inhibition

- Cc1ccc2c(c1)c1c3n2CCN(C2CCO2)C3CCC1 (centres undefined): -8.76% (inactive)

For the compound shown here, CC(C)c1ccc(S(=O)(=O)N2CCN(S(=O)(=O)c3ccc(C(C)C)cc3)C(C)C2)cc1 (centres undefined) , give the reported inhibition.
-17.6% (inactive)

Clc1cccc(Nc2nnc(-c3ccc(Br)cc3)o2)c1 , same question.
1.27% (inactive)

Field entry: Cc1ccc(Cn2c(=O)c3ccccc3n3c(SCC(=O)N(C(C)C)C(C)C)nnc23)cc1
-3.38% (inactive)
